Values compiled from ChEMBL document CHEMBL3621041.

- METHOD SUMMARY: Volume of distribution at steady state in Han Wistar rat at 2 umol/kg, iv and 5 umol/kg, po
- Assay type: ADME, organism-based
- PARTICULARS: in vivo, read-out: Vdss
READOUT LABEL: Vd (L/kg)

[P] C[C@@H]1Cc2c([nH]c3ccccc23)[C@@H](c2ccc(Cl)cc2)N1C[C@H](C)C(=O)O
[Q] O=C(O)CCN1CCc2c([nH]c3ccccc23)C1c1ccc(Cl)cc1 (racemic)
-- ask Hello, I am sorting some records. Could you say if P or Q has the smaller Vd value? Return value: the label identifying the chosen record.
-- reply P
(P: 0.34 L/kg, Q: 0.6 L/kg)
